biological target: BsCspB (cold shock protein B) (UniProt P32081 1-67); assay: intrinsic Trp fluorescence quenching; 200 g/L PEG1; 20 mM disodium phosphate pH 7.0, no added salt stated; fluorescence titration 298 K (0.5, 2.8 or 4 uM protein; table marks a/b not explained in the material); stopped-flow 288 K (60 or 300 nM protein); NMR 298 or 294.4 K with 5% D2O; details: protein: recombinant; single strand
Sequence (P32081 whole entry): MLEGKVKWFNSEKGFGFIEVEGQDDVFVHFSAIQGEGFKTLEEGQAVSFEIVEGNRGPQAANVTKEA
READOUT KIND: Kd (nM)

binder="TTTTTTT (ssDNA) [dT7]" measured_value=75
